Target: hOT7T175 (Homo sapiens, UniProt Q969F8, L364H)
Sequence (Q969F8 whole entry L364H): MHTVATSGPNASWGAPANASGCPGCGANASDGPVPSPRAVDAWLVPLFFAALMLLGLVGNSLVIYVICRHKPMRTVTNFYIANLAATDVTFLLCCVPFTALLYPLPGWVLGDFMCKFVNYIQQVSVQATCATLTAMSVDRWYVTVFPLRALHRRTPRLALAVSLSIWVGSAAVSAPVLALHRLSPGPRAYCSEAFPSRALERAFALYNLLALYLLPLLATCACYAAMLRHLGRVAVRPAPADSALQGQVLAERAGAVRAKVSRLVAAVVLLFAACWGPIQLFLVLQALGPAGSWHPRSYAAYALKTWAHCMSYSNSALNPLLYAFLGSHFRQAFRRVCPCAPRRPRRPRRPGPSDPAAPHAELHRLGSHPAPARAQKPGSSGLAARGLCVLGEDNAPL
Assay: Intracellular Ca ion level-increasing activity using FLIPR in hOT7T175/CHO
Type: cell-based
Design: expressed in transfected cells; host or cells: CHO/dhfr- cells, obtained from ATCC
Conditions: relative, Metastin (1-54) = 1
Square brackets hold non-standard residues; d marks the D form. Peptide text beside a SMILES is read from it. Phe(4-NH2) = Nc1ccc(C[C@H](N)C(=O)O)cc1; Phe(2-Cl) = N[C@@H](Cc1ccccc1Cl)C(=O)O; 1Nal = N[C@@H](Cc1cccc2ccccc12)C(=O)O; Arg(Me) = CNC(=N)NCCC[C@H](N)C(=O)O; azaGly = NNC(=O)O
Hi there, I'd appreciate the recorded Specific Activity (intracellular Ca ion level-increasing activity) for every entry that follows.
// keep it numeric: no unit symbol after the value

Quick check: Specific Activity (intracellular Ca ion level-increasing activity) of CC(C)C[C@H](NC(=O)CNC(=O)[C@H](Cc1ccccc1)NC(=O)[C@H](CO)NC(=O)[C@H](CC(N)=O)NC(=O)[C@H](Cc1c[nH]c2ccccc12)NC(=O)[C@H](CC(N)=O)NC(=O)[C@@H](N)Cc1ccc(O)cc1)C(=O)N[C@@H](CCCNC(=N)N)C(=O)N[C@@H](Cc1cccc2ccccc12)C(N)=O [Compound No. 133] (H-YNWNSFGLR[1Nal]-NH2) ?
3

Further, for "CNC(=N)NCCC[C@H](NC(=O)[C@H](CC(C)C)NC(=O)CC(=O)N[C@H](Cc1ccccc1)NC(=O)[C@H](CO)NC(=O)[C@H](CC(N)=O)NC(=O)[C@H](Cc1c[nH]c2ccccc12)NC(=O)[C@H](CC(N)=O)NC(=O)[C@H](N)Cc1ccc(O)cc1)C(=O)N[C@@H](Cc1ccccc1)C(N)=O" ?
3

Further, for CNC(=N)NCCC[C@H](NC(=O)[C@H](CC(C)C)NC(=O)NNC(=O)[C@H](Cc1ccccc1)NC(=O)[C@H](CO)NC(=O)[C@H](CC(N)=O)NC(=O)[C@H](Cc1ccccc1Cl)NC(=O)[C@H](CC(N)=O)NC(=O)[C@H](N)Cc1ccc(O)cc1)C(=O)N[C@@H](Cc1ccccc1)C(N)=O [Compound No. 247] (H-[dY]N[Phe(2-Cl)]NSF[azaGly]L[Arg(Me)]F-NH2) ?
1

Further, for CNC(=N)NCCC[C@H](NC(=O)[C@H](CC(C)C)NC(=O)NNC(=O)[C@H](Cc1ccccc1)NC(=O)[C@H](CO)NC(=O)[C@H](CC(N)=O)NC(=O)[C@H](Cc1ccc(N)cc1)NC(=O)[C@H](CC(N)=O)NC(=O)[C@H](N)Cc1ccc(O)cc1)C(=O)N[C@@H](Cc1ccccc1)C(N)=O [Compound No. 250] (H-[dY]N[Phe(4-NH2)]NSF[azaGly]L[Arg(Me)]F-NH2) ?
1

Further, for "CNC(=N)NCCC[C@H](NC(=O)[C@H](CC(C)C)NC(=O)CNC(=O)[C@H](Cc1ccccc1)NC(=O)[C@H](CO)NC(=O)[C@H](CC(N)=O)NC(=O)[C@H](Cc1c[nH]c2ccccc12)NC(=O)[C@@H](CC(N)=O)NC(=O)[C@H](N)Cc1ccc(O)cc1)C(=O)N[C@@H](Cc1ccccc1)C(N)=O" ?
10

Further, for CNC(=N)NCCC[C@H](NC(=O)[C@H](CC(C)C)NC(=O)NNC(=O)[C@H](Cc1ccccc1)NC(=O)[C@H](CO)NC(=O)[C@H](CC(N)=O)NC(=O)[C@H](Cc1c[nH]c2ccccc12)NC(C)=O)C(=O)N[C@@H](Cc1ccccc1)C(N)=O [Compound No. 272] (Ac-WNSF[azaGly]L[Arg(Me)]F-NH2) ?
2

---

Target: hOT7T175 (Homo sapiens, UniProt Q969F8, L364H)
Assay: Intracellular Ca ion level-increasing activity using FLIPR in hOT7T175/CHO
Assay type: cell-based
Parameters: expressed in transfected cells; host or cells: CHO/dhfr- cells, obtained from ATCC
Conditions: relative, Metastin (1-54) = 1
Numbered stars: 1 amine (or outer) side, 2 acyl side, 3 side chain; on linkers, the order of the positions; unused ones are H or OH. Square brackets hold non-standard residues; d marks the D form. Peptide text beside a SMILES is read from it. * marks the point of attachment. X10 = NC(=O)C[C@@H](C(=O)[*:2])N(C[C@@H](N)Cc1ccc(O)cc1)[*:1]; 1Nal = N[C@@H](Cc1cccc2ccccc12)C(=O)O; 2Nal = N[C@@H](Cc1ccc2ccccc2c1)C(=O)O; Arg(Me) = CNC(=N)NCCC[C@H](N)C(=O)O; d3Pal = N[C@H](Cc1cccnc1)C(=O)O; Cha = N[C@@H](CC1CCCCC1)C(=O)O; X2 = O=C(Cc1c[nH]c2ccccc12)*; azaGly = NNC(=O)O
Measurement Name: Specific Activity (intracellular Ca ion level-increasing activity)

Lab request: please report Specific Activity (intracellular Ca ion level-increasing activity) under test system hOT7T175 (Homo sapiens, UniProt Q969F8, L364H) for CNC(=N)NCCC[C@H](NC(=O)[C@H](CC(C)C)NC(=O)NNC(=O)[C@H](Cc1ccccc1)NC(=O)[C@H](CO)NC(=O)[C@H](CC(N)=O)NC(=O)[C@H](CC1CCCCC1)NC(=O)[C@@H](CC(N)=O)NC(=O)[C@H](N)Cc1cccnc1)C(=O)N[C@@H](Cc1ccccc1)C(N)=O [Compound No. 290] (H-[d3Pal][dN][Cha]NSF[azaGly]L[Arg(Me)]F-NH2)
1

Further, for "CC(C)C[C@H](NC(=O)CNC(=O)[C@H](Cc1ccccc1)NC(=O)[C@H](CO)NC(=O)[C@H](CC(N)=O)NC(=O)[C@H](Cc1c[nH]c2ccccc12)NC(=O)[C@H](CC(N)=O)NC(=O)[C@@H](N)Cc1ccc(O)cc1)C(=O)N[C@@H](CCCNC(=N)N)C(=O)N[C@@H](Cc1ccc(Cl)cc1)C(N)=O" ?
10

Further, for CNC(=N)NCCC[C@H](NC(=O)[C@H](CC(C)C)NC(=O)NNC(=O)[C@H](Cc1ccccc1)NC(=O)[C@H](CO)NC(=O)[C@H](CC(N)=O)NC(=O)[C@H](Cc1c[nH]c2ccccc12)NC(=O)[C@H](CC(N)=O)NC[C@@H](N)Cc1ccc(O)cc1)C(=O)N[C@@H](Cc1ccccc1)C(N)=O [Compound No. 299] (H-[X10]WNSF[azaGly]L[Arg(Me)]F-NH2) ?
5

Further, for "CC(C)C[C@H](NC(=O)NNC(=O)[C@H](Cc1ccccc1)NC(=O)[C@H](CO)NC(=O)[C@H](CC(N)=O)NC(=O)[C@H](Cc1c[nH]c2ccccc12)NC(=O)[C@H](CC(N)=O)NC(=O)[C@@H](N)Cc1ccc(O)cc1)C(=O)N[C@@H](CCCNC(=N)N)C(=O)N[C@@H](Cc1ccccc1)C(N)=O" ?
5

Further, for CNC(=N)NCCC[C@H](NC(=O)[C@H](CC(C)C)NC(=O)NNC(=O)[C@H](Cc1ccccc1)NC(=O)[C@@H](NC(=O)[C@H](CC(N)=O)NC(=O)[C@H](Cc1c[nH]c2ccccc12)NC(=O)[C@H](CC(N)=O)NC(=O)[C@H](N)Cc1ccc(O)cc1)[C@@H](C)O)C(=O)N[C@@H](Cc1ccccc1)C(N)=O [Compound No. 297] (H-[dY]NWNTF[azaGly]L[Arg(Me)]F-NH2; N-terminus assumed) ?
1

Further, for CNC(=N)NCCC[C@H](NC(=O)[C@H](CC(C)C)NC(=O)NNC(=O)[C@H](Cc1ccccc1)NC(=O)[C@H](CO)NC(=O)[C@H](CC(N)=O)NC(=O)[C@@H](NC(=O)[C@H](N)Cc1ccc(O)cc1)[C@@H](C)O)C(=O)N[C@@H](Cc1ccccc1)C(N)=O [Compound No. 241] (H-[dY]TNSF[azaGly]L[Arg(Me)]F-NH2) ?
1

Further, for CNC(=N)NCCC[C@H](NC(=O)[C@H](CC(C)C)NC(=O)NNC(=O)[C@H](Cc1ccccc1)NC(=O)[C@H](CO)NC(=O)[C@H](CC(N)=O)NC(=O)[C@H](Cc1ccc2ccccc2c1)NC(=O)[C@H](CC(N)=O)NC(=O)[C@H](N)Cc1ccc(O)cc1)C(=O)N[C@@H](Cc1ccccc1)C(N)=O [Compound No. 246] (H-[dY]N[2Nal]NSF[azaGly]L[Arg(Me)]F-NH2) ?
2

Further, for "CC(C)C[C@H](NC(=O)CNC(=O)[C@H](Cc1ccccc1)NC(=O)[C@H](CO)NC(=O)[C@H](CC(N)=O)NC(=O)[C@H](Cc1cn(C=O)c2ccccc12)NC(=O)[C@H](CC(N)=O)NC(=O)[C@@H](N)Cc1ccc(O)cc1)C(=O)N[C@@H](CCCNC(=N)N)C(=O)N[C@@H](Cc1ccc(C#N)cc1)C(N)=O" ?
10

Further, for "CC(C)C[C@H](NC(=O)CNC(=O)[C@H](Cc1ccccc1)NC(=O)[C@H](CO)NC(=O)[C@H](CC(N)=O)NC(=O)[C@H](Cc1c[nH]c2ccccc12)NC(=O)[C@H](CC(N)=O)NC(=O)[C@@H](N)Cc1ccc(O)cc1)C(=O)N[C@@H](CCCNC(=N)N)C(=O)N[C@@H](Cc1ccc(F)c(F)c1)C(N)=O" ?
10

Further, for CNC(=N)NCCC[C@H](NC(=O)[C@H](CC(C)C)NC(=O)NNC(=O)[C@H](Cc1ccccc1)NC(=O)[C@H](CO)NC(=O)[C@H](CC(N)=O)NC(=O)[C@H](Cc1cccc2ccccc12)NC(=O)[C@H](CC(N)=O)NC(=O)[C@H](N)Cc1ccc(O)cc1)C(=O)N[C@@H](Cc1ccccc1)C(N)=O [Compound No. 245] (H-[dY]N[1Nal]NSF[azaGly]L[Arg(Me)]F-NH2) ?
1

Further, for CNC(=N)NCCC[C@H](NC(=O)[C@H](CC(C)C)NC(=O)NNC(=O)[C@H](Cc1ccccc1)NC(=O)[C@H](CO)NC(=O)[C@H](CC(N)=O)NC(=O)[C@@H](N)Cc1c[nH]c2ccccc12)C(=O)N[C@@H](Cc1ccccc1)C(N)=O [Compound No. 271] (H-WNSF[azaGly]L[Arg(Me)]F-NH2; N-terminus assumed) ?
1

Further, for CNC(=N)NCCC[C@H](NC(=O)[C@H](CC(C)C)NC(=O)NNC(=O)[C@H](Cc1ccccc1)NC(=O)[C@H](CO)NC(=O)[C@H](CC(N)=O)NC(=O)Cc1c[nH]c2ccccc12)C(=O)N[C@@H](Cc1ccccc1)C(N)=O [Compound No. 266] (X2-NSF[azaGly]L[Arg(Me)]F-NH2) ?
2
